- Test system: XF 498 CNS
- experiment-notes: NCI tumour cell line growth inhibition, 48 h
# Lookup of reported TGI keyed by entry

Study these solved cases before continuing.
INSERT INTO measurements (compound, quantity_name, result) VALUES
  ('OCc1ccc2[n+](c1)CCC1c3ccccc3NC21 (centres undefined)', 'TGI', '> 300 µM'),
  ('COC(=O)C(=O)C(C(=O)C=C(C)C)C(=O)C(=O)Nc1cc(C(F)(F)F)ccc1Cl (centres undefined)', 'TGI', '> 100 µM'),
  ('Cc1cc(N(CCOS(C)(=O)=O)CCOS(C)(=O)=O)ccc1C=Nc1ccc(-c2nc(Cc3ccccc3)sc2C)cc1', 'TGI', '9.12 µM'),
  ('Cc1nc2c(nc1Cl)nc(Oc1ccc(Cl)cc1)c1ccccc12', 'TGI', '> 100 µM'),
  ('CCCCNC1=C(C(=O)OCC)C(=O)CO1', 'TGI', '> 100 µM');

**Query** What value of TGI has been reported for the following compound? CC1(Cl)C(=O)NC(=O)N(C2CC(N=[N+]=[N-])C(CO)O2)C1N=[N+]=[N-] (centres undefined)
**Result** > 100 µM

**Query** Cool, now CCCCN(CCCC)C(=O)C(=O)C(C#N)c1ccc(C)cc1 (centres undefined)
**Result** > 100 µM

**Query** Same question, COC(=O)CC(C(C(=O)OC)C(=O)OC)N1C(=O)OCC1c1ccccc1 (centres undefined) this time
**Result** > 100 µM

**Query** Follow-up entry: COc1cc(/C=C2/C(=O)N(C(=O)c3ccccc3O)N=C2C)cc(OC)c1OC
**Result** > 100 µM
